# system_name: Transcription factor Jun (Homo sapiens) (UniProt P05412)
# Sequence (P05412 whole entry): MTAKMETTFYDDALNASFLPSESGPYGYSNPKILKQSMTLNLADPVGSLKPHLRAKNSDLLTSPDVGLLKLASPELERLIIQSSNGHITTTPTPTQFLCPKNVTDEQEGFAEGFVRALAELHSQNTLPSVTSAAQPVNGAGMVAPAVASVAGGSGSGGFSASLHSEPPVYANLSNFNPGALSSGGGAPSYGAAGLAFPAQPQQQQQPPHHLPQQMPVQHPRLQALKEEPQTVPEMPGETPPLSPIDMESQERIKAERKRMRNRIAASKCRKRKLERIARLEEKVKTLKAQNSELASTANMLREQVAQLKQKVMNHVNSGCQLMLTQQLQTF
# experiment_description: Inhibition of AP-1 expressed in HEK293 cells assessed as PMA-stimulated transcriptional activation at 10 uM treated 24 hrs before PMA challenge measured after 20 to 24 hrs by luciferase reporter gene assay
# Type: cell-based
inhibition of 10% or higher: MET. Under 10%: NOT MET.

Enquiry: API: above_or_equal(metric=inhibition, cutoff=10%) for item Cc1ccccc1-n1c(-c2cc(-c3ccc(S(C)(=O)=O)cc3)c(N3CCOCC3)s2)nc2ccccc2c1=O
Return: MET

Enquiry: API: above_or_equal(metric=inhibition, cutoff=10%) for item O=c1c2ccccc2nc(-c2cc(-c3ccccc3)c(N3CCOCC3)s2)n1-c1ccccc1
Return: MET

Enquiry: API: above_or_equal(metric=inhibition, cutoff=10%) for item CSc1ccc(-c2cc(-c3nc4ccccc4c(=O)n3-c3cccc(C)c3)sc2N2CCOCC2)cc1
Return: MET

Enquiry: API: above_or_equal(metric=inhibition, cutoff=10%) for item O=c1c2ccccc2nc(-c2cc(-c3ccncc3)c(N3CCOCC3)s2)n1-c1ccccc1Cl
Return: MET

Enquiry: API: above_or_equal(metric=inhibition, cutoff=10%) for item O=c1c2ccccc2nc(-c2cc(-c3ccccc3)c(N3CCOCC3)s2)n1-c1ccc(Cl)cc1
Return: MET

Enquiry: API: above_or_equal(metric=inhibition, cutoff=10%) for item COc1cccc(-n2c(-c3cc(-c4ccc(S(C)(=O)=O)cc4)c(N4CCOCC4)s3)nc3ccccc3c2=O)c1
Return: NOT MET

Enquiry: API: above_or_equal(metric=inhibition, cutoff=10%) for item COc1ccccc1-n1c(-c2cc(-c3ccccc3)c(N3CCOCC3)s2)nc2ccccc2c1=O
Return: NOT MET

Enquiry: API: above_or_equal(metric=inhibition, cutoff=10%) for item O=c1c2ccccc2nc(-c2cc(-c3ccncc3)c(N3CCOCC3)s2)n1-c1ccccc1
Return: MET

Enquiry: API: above_or_equal(metric=inhibition, cutoff=10%) for item O=c1c2ccccc2nc(-c2cc(-c3ccc(Cl)cc3)c(N3CCOCC3)s2)n1-c1ccc(Cl)cc1
Return: MET

Enquiry: API: above_or_equal(metric=inhibition, cutoff=10%) for item Cc1ccc(-n2c(-c3cc(-c4ccc(Cl)cc4)c(N4CCOCC4)s3)nc3ccccc3c2=O)cc1
Return: MET

Enquiry: API: above_or_equal(metric=inhibition, cutoff=10%) for item CSc1ccc(-c2cc(-c3nc4ccccc4c(=O)n3-c3ccc(C)cc3)sc2N2CCOCC2)cc1
Return: MET

Enquiry: API: above_or_equal(metric=inhibition, cutoff=10%) for item CC(=O)Nc1ccc(-c2cc(-c3nc4ccccc4c(=O)n3-c3ccc(C)cc3)sc2N2CCOCC2)cc1
Return: MET

Enquiry: API: above_or_equal(metric=inhibition, cutoff=10%) for item CC(=O)Nc1ccc(-c2cc(-c3nc4ccccc4c(=O)n3-c3ccccc3)sc2N2CCOCC2)cc1
Return: MET

Enquiry: API: above_or_equal(metric=inhibition, cutoff=10%) for item Cc1ccccc1-n1c(-c2cc(-c3ccccc3)c(N3CCOCC3)s2)nc2ccccc2c1=O
Return: MET

Enquiry: API: above_or_equal(metric=inhibition, cutoff=10%) for item Cc1ccc(-n2c(-c3cc(-c4ccccc4)c(N4CCOCC4)s3)nc3ccccc3c2=O)cc1
Return: MET

Enquiry: API: above_or_equal(metric=inhibition, cutoff=10%) for item Cc1cccc(-n2c(-c3cc(-c4ccncc4)c(N4CCOCC4)s3)nc3ccccc3c2=O)c1
Return: MET

Enquiry: API: above_or_equal(metric=inhibition, cutoff=10%) for item CS(=O)(=O)c1ccc(-c2cc(-c3nc4ccccc4c(=O)n3-c3ccc(Cl)cc3)sc2N2CCOCC2)cc1
Return: NOT MET
